// reported binding signal for each item listed
system: p52p52 homodimer (Homo sapiens, UniProt Q00653 4-332)
Sequence: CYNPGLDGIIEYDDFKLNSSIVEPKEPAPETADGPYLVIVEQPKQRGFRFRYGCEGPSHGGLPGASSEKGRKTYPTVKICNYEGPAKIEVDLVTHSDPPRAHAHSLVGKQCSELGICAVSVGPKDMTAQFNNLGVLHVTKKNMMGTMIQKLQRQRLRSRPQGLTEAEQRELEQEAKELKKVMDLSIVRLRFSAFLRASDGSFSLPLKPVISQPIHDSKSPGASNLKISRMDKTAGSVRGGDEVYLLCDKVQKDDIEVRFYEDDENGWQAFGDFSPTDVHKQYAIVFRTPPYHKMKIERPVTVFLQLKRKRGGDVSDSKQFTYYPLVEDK
assay-name: protein binding microarray; high values mean tight binding
condition-summary: dsDNA, one strand shown
reported-property: binding signal (z-score)

INSERT INTO measurements (sequence_chain, system, numeric_value) VALUES
  ('GAGGGCATCCC', 'p52p52 homodimer (Homo sapiens, UniProt Q00653 4-332)', -0.256),
  ('AAGTTCACCCC', 'p52p52 homodimer (Homo sapiens, UniProt Q00653 4-332)', 0.0438),
  ('AAGATCTCCCT', 'p52p52 homodimer (Homo sapiens, UniProt Q00653 4-332)', 0.499),
  ('GAATATTCCCT', 'p52p52 homodimer (Homo sapiens, UniProt Q00653 4-332)', 1.3),
  ('GGGGTGATCCC', 'p52p52 homodimer (Homo sapiens, UniProt Q00653 4-332)', 1.59),
  ('GAATAAGTCCC', 'p52p52 homodimer (Homo sapiens, UniProt Q00653 4-332)', 0.974),
  ('CGGTGTCTCCC', 'p52p52 homodimer (Homo sapiens, UniProt Q00653 4-332)', 0.283),
  ('GAGTGCGCCCC', 'p52p52 homodimer (Homo sapiens, UniProt Q00653 4-332)', -0.0852),
  ('GGGGGCCTCCC', 'p52p52 homodimer (Homo sapiens, UniProt Q00653 4-332)', 2.41),
  ('CAATACATCCC', 'p52p52 homodimer (Homo sapiens, UniProt Q00653 4-332)', -0.518),
  ('AAAGTCTCCCC', 'p52p52 homodimer (Homo sapiens, UniProt Q00653 4-332)', 0.559),
  ('AGAGAGATCCC', 'p52p52 homodimer (Homo sapiens, UniProt Q00653 4-332)', -0.367),
  ('AGGATCTCCCC', 'p52p52 homodimer (Homo sapiens, UniProt Q00653 4-332)', 0.969),
  ('CGATGCTCCCC', 'p52p52 homodimer (Homo sapiens, UniProt Q00653 4-332)', -0.125),
  ('CAGTACCCCCC', 'p52p52 homodimer (Homo sapiens, UniProt Q00653 4-332)', 0.733),
  ('GAGTTGTTCCC', 'p52p52 homodimer (Homo sapiens, UniProt Q00653 4-332)', -0.231);

###

system: RELA (p65) subunit of heterodimer;p50 subunit (Homo sapiens;Homo sapiens, UniProt Q04206;P19838 1-307;7-356)
Sequence (Q04206 1-307, chain 1 of 2): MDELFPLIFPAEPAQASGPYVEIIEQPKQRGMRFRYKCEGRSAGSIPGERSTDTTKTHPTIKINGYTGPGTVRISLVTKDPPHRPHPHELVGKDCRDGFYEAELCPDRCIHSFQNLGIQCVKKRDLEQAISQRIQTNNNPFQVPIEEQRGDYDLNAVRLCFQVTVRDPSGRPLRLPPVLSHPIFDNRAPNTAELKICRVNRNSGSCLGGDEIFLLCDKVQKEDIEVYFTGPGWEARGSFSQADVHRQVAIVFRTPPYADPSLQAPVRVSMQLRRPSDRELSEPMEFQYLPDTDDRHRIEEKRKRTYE
Sequence (P19838 7-356, chain 2 of 2): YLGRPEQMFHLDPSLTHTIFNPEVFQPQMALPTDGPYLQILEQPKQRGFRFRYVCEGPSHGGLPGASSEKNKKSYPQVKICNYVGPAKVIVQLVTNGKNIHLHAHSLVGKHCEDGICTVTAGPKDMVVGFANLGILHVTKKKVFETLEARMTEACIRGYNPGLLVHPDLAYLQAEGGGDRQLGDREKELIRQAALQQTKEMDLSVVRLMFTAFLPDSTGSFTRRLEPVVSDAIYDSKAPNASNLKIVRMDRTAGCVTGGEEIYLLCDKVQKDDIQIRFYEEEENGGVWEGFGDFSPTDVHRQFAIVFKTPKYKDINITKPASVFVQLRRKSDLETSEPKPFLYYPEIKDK
assay-name: protein binding microarray; high values mean tight binding
condition-summary: dsDNA, one strand shown
// reported binding signal for each item listed
reported-property: binding signal

INSERT INTO assay_data (sequence_chain, reported_property, result) VALUES
  ('CGAGTCCCCCT', 'binding signal', '1.66 z-score'),
  ('AGATGAACCCC', 'binding signal', '-0.402 z-score'),
  ('AAATGTATCCT', 'binding signal', '-0.932 z-score'),
  ('GGAATGCCCCC', 'binding signal', '2.08 z-score'),
  ('CGAAAGGCCCT', 'binding signal', '-0.366 z-score'),
  ('GGGGTACTCCT', 'binding signal', '0.47 z-score'),
  ('GGATAAATCCC', 'binding signal', '0.64 z-score'),
  ('AGGTGCACCCC', 'binding signal', '0.0923 z-score'),
  ('AGATGGTTCCT', 'binding signal', '-0.843 z-score'),
  ('AGAGTCATCCT', 'binding signal', '-1.23 z-score'),
  ('AGGATACCCCC', 'binding signal', '1.34 z-score'),
  ('GAAGAGTTCCC', 'binding signal', '0.27 z-score'),
  ('AAATGCCCCCC', 'binding signal', '1.43 z-score'),
  ('CAAGAGGTCCC', 'binding signal', '-0.152 z-score'),
  ('GGGGTCTCCCT', 'binding signal', '1.01 z-score'),
  ('CAGAAAATCCC', 'binding signal', '0.992 z-score'),
  ('GAGGGCTCCCC', 'binding signal', '0.109 z-score'),
  ('AAGTTATCCCC', 'binding signal', '0.995 z-score'),
  ('GAAGGGACCCC', 'binding signal', '-0.173 z-score'),
  ('GGGTAGGCCCC', 'binding signal', '0.396 z-score'),
  ('AAGAATCCCCC', 'binding signal', '2.44 z-score'),
  ('CAGGGATCCCC', 'binding signal', '1.56 z-score'),
  ('GGAAGCACCCT', 'binding signal', '0.415 z-score'),
  ('CAGAGCATCCC', 'binding signal', '-0.856 z-score'),
  ('GAGAGCCCCCC', 'binding signal', '0.853 z-score'),
  ('CGAGGTGCCCT', 'binding signal', '-0.798 z-score'),
  ('AGAATGACCCC', 'binding signal', '-0.177 z-score');

###

system: C-Rel subunit;p50 subunit (Homo sapiens;Homo sapiens, UniProt Q04864;P19838 1-285;7-356)
Sequence (Q04864 1-285, chain 1 of 2): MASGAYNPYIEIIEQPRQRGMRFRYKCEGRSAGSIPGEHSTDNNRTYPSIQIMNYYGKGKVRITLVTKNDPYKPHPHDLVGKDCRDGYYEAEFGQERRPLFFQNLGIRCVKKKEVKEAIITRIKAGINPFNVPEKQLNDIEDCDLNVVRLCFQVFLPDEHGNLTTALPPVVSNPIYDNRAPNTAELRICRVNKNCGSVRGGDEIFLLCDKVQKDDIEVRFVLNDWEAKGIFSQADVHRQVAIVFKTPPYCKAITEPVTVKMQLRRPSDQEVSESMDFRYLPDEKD
Sequence (P19838 7-356, chain 2 of 2): as the sequence (P19838 7-356, chain 2 of 2) above
assay-name: protein binding microarray; high values mean tight binding
condition-summary: dsDNA, one strand shown
reported-property: binding signal (z-score)

INSERT INTO measurements (sequence_chain, numeric_value) VALUES
  ('GAGTAGTCCCT', 0.633),
  ('GAGGATTCCCC', 1.54),
  ('AAAGAAGTCCT', -0.558),
  ('AAATTCATCCT', -1.11),
  ('AGAGGAATCCC', 0.405),
  ('GGGAAGACCCT', 0.481),
  ('GGGATGCCCCT', 1.22),
  ('CGAATATTCCC', 0.941),
  ('CAGTGAACCCC', -0.189),
  ('AGGAGGATCCT', -1.4),
  ('CAGTTCTCCCT', 0.63),
  ('CGGTGTCTCCC', -0.0512),
  ('AAGTGCCTCCC', -1.1),
  ('AAGTAGTCCCC', 1.07),
  ('AGGTTTGTCCC', 0.937),
  ('CAGAGACCCCC', 0.323),
  ('CGATGCTCCCC', 0.0174),
  ('GGAAACCTCCT', -0.436),
  ('CAGGAGGTCCT', -0.953),
  ('CGATTAGTCCT', -1.1),
  ('GGAAGAGCCCT', -0.606),
  ('AGAATTGCCCT', -0.0961),
  ('AAGGTCACCCT', -1.21),
  ('GGGGTCATCCT', -0.494),
  ('CAGAGCTCCCC', 0.0629),
  ('AGGAGGTCCCC', 0.617),
  ('GAAGGGCTCCC', -1.05),
  ('CGGGGTTCCCC', 2.2),
  ('GAGAAGATCCC', -0.311),
  ('AAGGTAGCCCC', 0.249),
  ('AAGTGTATCCC', -0.695),
  ('AAGATCTCCCT', 0.475),
  ('AGAGTCATCCT', -1.63),
  ('AAGGGCGTCCT', -1.25),
  ('CAGTTACTCCT', -1.08);

###

system: RELA (p65) subunit of heterodimer;p50 subunit (Homo sapiens;Homo sapiens, UniProt Q04206;P19838 1-307;7-356)
assay-name: protein binding microarray; high values mean tight binding
condition-summary: dsDNA, one strand shown
reported-property: binding signal

INSERT INTO results (sequence_chain, result) VALUES
  ('CGGTTGCTCCT', '-0.927 z-score'),
  ('GAAGTACCCCC', '1.31 z-score'),
  ('GGAAGTATCCT', '-0.799 z-score'),
  ('GGAGAAACCCT', '0.478 z-score'),
  ('AAGTGCTCCCT', '-0.382 z-score'),
  ('AAAGTCATCCC', '-1.01 z-score'),
  ('GAGTTAATCCC', '-0.451 z-score'),
  ('CGAGTCTTCCC', '-0.0997 z-score'),
  ('AGGATTGTCCT', '-0.736 z-score'),
  ('CGATTTCCCCT', '2.26 z-score'),
  ('GAAGACACCCC', '-0.324 z-score'),
  ('CAATACATCCC', '-0.774 z-score'),
  ('AGGTTTTCCCC', '2.17 z-score'),
  ('AGGTTACCCCT', '0.468 z-score'),
  ('CGGGGGGTCCC', '1.38 z-score'),
  ('AGAATCCCCCC', '2.66 z-score'),
  ('AGAAACGTCCT', '-0.997 z-score'),
  ('CAATGCACCCT', '-0.616 z-score'),
  ('AAAGTCTCCCC', '0.733 z-score'),
  ('GAGATGATCCT', '-0.978 z-score'),
  ('AAGGGGCTCCT', '0.032 z-score'),
  ('CGGGTCGTCCT', '-0.972 z-score'),
  ('CAATTTATCCT', '-0.744 z-score'),
  ('AGAGTATTCCC', '0.534 z-score'),
  ('CAATGGGCCCC', '-0.699 z-score'),
  ('GGGTGCTCCCT', '-0.166 z-score'),
  ('GGGATCGTCCT', '-0.544 z-score'),
  ('AGAGATTTCCT', '-0.403 z-score'),
  ('AAGTGTATCCC', '-0.553 z-score'),
  ('CGATACACCCT', '-0.642 z-score');
